Origin of the recorded values: PubChem BioAssay (NCI)

# Tested on: SK-MEL-28 melanoma
# ASSAY PROTOCOL: NCI-60 one-dose screen, 48 h (100 = growth as untreated, 0 = no growth, -100 = all killed)
# CONDITION DESCRIPTION: 10 µM unless noted
This is part of a sample that, as a whole, favours compounds with a hit. Of some 83,000 tested, about 20% had one in any assay.
The following compounds are listed with their measured growth values.
Report the value in % with no unit label.

C[CH2][Pb]([CH2]C)([CH2]C)[O]C(=O)c1ccc(N)cc1 ... 58.8
CN(Cc1cccnc1)N=O ... 108

### Prompt Kindly state the measured growth obtained for COc1ccc(/C=C(/C(=O)N2CCCC2)c2cc(OC)c(OC)c(OC)c2)cc1N with SK-MEL-28 melanoma.
### Response 60.9

### Prompt Find the measured growth: item N#Cc1ncc(/N=C/c2ccc(N(CCCl)CCCl)cc2)s1 , target or system SK-MEL-28 melanoma.
### Response 102

### Prompt What measured growth is associated with C=CCC1(CC)C(=O)NC(=S)NC1=O on SK-MEL-28 melanoma?
### Response 116

### Prompt Hello, I am looking for reported growth with SK-MEL-28 melanoma for CC(C)OC(=S)[S-].[Au+].c1ccc([PH+](c2ccccc2)c2ccccc2)cc1 . Could you help?
### Response 16.5

* * *

# System: HL-60(TB) leukemia
# ASSAY PROTOCOL: NCI-60 one-dose screen, 48 h (100 = growth as untreated, 0 = no growth, -100 = all killed)
# CONDITION DESCRIPTION: 10 µM unless noted
The panel holds about 83,000 compounds, 20% with a hit somewhere; the sample as a whole holds those more often. Activity calls are given as the source filed them. The calls were made as follows: active = growth percent below 10; inactive = the rest.
ASSAY METRIC: growth

CCc1ccc(CCN2C(=O)c3ccccc3C2=O)nc1 ... 120% (inactive)
CCOC(=O)/C(=C\c1ccccc1Cl)P(=O)(OCC)OCC ... 10.8% (inactive)
C/C(=C(\c1ccc(OCCN2CCOCC2)cc1)c1ccc(OC(=O)C2CCCCC2)cc1)c1ccc(Cl)cc1 ... 96.4% (inactive)
COc1cc(C2CC(c3ccc(Cl)cc3)=NN2C(C)=O)ccc1Oc1ccnc2cc(Cl)ccc12 (stereo not drawn) ... 110% (inactive)
O=C(N/N=C/c1ccc(Cl)cc1)c1ccc(NC(=O)c2ccccn2)cc1 ... 103% (inactive)
CC(C)(CCc1ccccn1)C(=O)CCCc1ccccn1 ... 103% (inactive)

### Prompt Which measured growth value corresponds to O=C(/C=C/c1ccccn1)c1ccccc1O ?
### Response 13.1% (inactive)

### Prompt Request the reported growth associated with C[C@]12C=CC(=O)C=C1[C@@H](F)C[C@@H]1[C@@H]2[C@@H](O)C[C@@]2(C)[C@H]1CC[C@]2(O)C(=O)CO
### Response 107% (inactive)

### Prompt Find the recorded growth belonging to COc1ccccc1C(=O)O/N=C(\N)Cc1cccc2ccccc12 and report it.
### Response 96.3% (inactive)

### Prompt Recorded growth for Cc1sc(NC(=O)c2ccc(C(C)(C)C)cc2)c(C(=O)O)c1C , please?
### Response 45.2% (inactive)

### Prompt Any idea what growth was measured for COc1ccc2nc(-n3nc(C)cc3C)c(-n3nc(C)cc3C)nc2c1 ?
### Response 104% (inactive)

* * *

# System: CCRF-CEM leukemia
# ASSAY PROTOCOL: NCI-60 one-dose screen, 48 h
# CONDITION DESCRIPTION: 10 µM unless noted
The panel holds about 83,000 compounds, 20% with a hit somewhere; the sample as a whole holds those more often. Calls of active or inactive are those of the source. How the source made its calls: active means growth percent below 10; inactive means the rest.
Give your call using only these classes: 1 for active, -1 for inactive

COc1cccc2c1C(=O)c1c(O)c3c(c(O)c1C2=O)CC(O)(/C(C)=N/NC(=O)CCC(=O)N/N=C(\C)C1(O)Cc2c(O)c4c(c(O)c2C(OC2CC(N)C(O)C(C)O2)C1)C(=O)c1c(OC)cccc1C4=O)CC3OC1CC(N)C(O)C(C)O1 (centres undefined) ... 1
Cc1cc(CCl)c(C)cc1CCl ... -1
COc1cc(/C=C\c2cc(OC)c(OC)c(OC)c2)cc(N/C=C\C(=O)c2ccc(OC(F)(F)F)cc2)c1OC ... 1
O=C(N/N=C/c1ccc(N(CCCl)CCCl)cc1)c1cc(=O)[nH]c(=O)[nH]1 ... -1
COc1cc(C2=NN(c3ccccc3)C(c3sc(N(CCCl)CCCl)nc3Cl)C2)cc(OC)c1OC (centres undefined) ... -1

### Prompt Assay result, entry O=C1C=CC(=O)C2C1C1(Cl)C(Cl)=C(Cl)C2(Cl)C1(Cl)Cl (centres undefined) — outcome?
### Response -1

* * *

# System: TK-10 renal
# ASSAY PROTOCOL: NCI-60 one-dose screen, 48 h (100 = growth as untreated, 0 = no growth, -100 = all killed)
# CONDITION DESCRIPTION: 10 µM unless noted
The panel holds about 83,000 compounds, 20% with a hit somewhere; the sample as a whole holds those more often.
Some compounds, each annotated with its measured growth.
Kindly answer with a numeric value in %, unit omitted.

Previously resolved entries follow.
CC1(C)N=C(N)N=C(N)N1c1ccc(OCCCCNC(=O)Nc2cccc(S(=O)(=O)F)c2)c(Cl)c1 ... 62
O=C1C=CC(=O)C2C1C1(Cl)C(Cl)=C(Cl)C2(Cl)C1(Cl)Cl (configuration not stated) ... 71.5
COc1cc(C2(C#N)CCN(C)CC2)cc(OC)c1OC ... 108

### Prompt Reported growth, compound CC(CC(C#N)(c1ccccc1)c1ccccc1)N1CCOCC1 (configuration not stated) : ____
### Response 105

### Prompt Suppose we examine the compound C=CC(=O)NC(O)C(Cl)(Cl)Cl (configuration not stated) ; what growth value has been reported?
### Response 95.9

### Prompt Using the record for O=C(c1cccs1)C1NO[N+]([O-])=C1c1cccs1 (configuration not stated) , report its growth.
### Response -46.8

### Prompt Dear colleague, I am looking for the recorded growth of the following compound: O=S(=O)(c1ccc(Cl)cc1)C(Cl)(Cl)Cl
### Response 50.6

### Prompt Which measured growth value corresponds to CN1CC2CCC(C1)C2=O ?
### Response 93

### Prompt // returns reported growth for input ClCCN(CCCl)C(c1ccccc1)c1ccc(Cl)cc1 (configuration not stated)
### Response 81.1

### Prompt Entry Cc1cc(NC(=O)NCCOc2ccc(N3C(N)=NC(N)=NC3(C)C)cc2Cl)ccc1S(=O)(=O)F has what growth?
### Response 35.3

### Prompt Need growth, item ClCCN(CCCl)c1nc(Cl)c(C2CC(c3ccc(Cl)cc3)=NN2c2cc(Cl)cc(Cl)c2)s1 (configuration not stated)
### Response 109

### Prompt Query (compound): Nc1ncnc2c1c(C(=O)NO)cn2C1OC(CO)C(O)C1O (configuration not stated) ; field requested: growth
### Response 6.25

* * *

# Test system: NCI-H522 lung
# ASSAY PROTOCOL: NCI-60 one-dose screen, 48 h
# CONDITION DESCRIPTION: 10 µM unless noted
This is part of a sample that, as a whole, favours compounds with a hit. Of some 83,000 tested, about 20% had one in any assay. The source made the active and inactive calls. How the source made its calls: active means growth percent below 10; inactive means the rest.
Use one of these outcomes when replying: 1 for active, 0 for inactive

Previously resolved entries follow.
c1cnc2c(c1)ccc1ncccc12 ... 0
C/C1=C/C(=O)O[C@@H]2C[C@@H](CC[C@H](C)/C=C\C=C\CC1)O[C@@](OCCc1ccccc1)([C@@H]1CSC(=O)N1)C2 ... 1
CCN(CC)c1ccc(C=C2C(=O)NC(=S)NC2=O)cc1 ... 0
CCN(CC)CCOc1c(C(C)C)cccc1C(C)C ... 0

### Prompt // return assay outcome for CC(=O)OC1CCC2(C)C(=CCC3C4CC(CN5CC5)C(=O)C4(C)CCC32)C1 (stereo unspecified)
### Response 1

### Prompt State the result this test recorded for CC1([N+](=O)[O-])COP(=O)(Nc2ccc(F)cc2)OC1 (stereo unspecified) .
### Response 0

### Prompt Please indicate how the test categorized Oc1ccccc1OB(Oc1ccccc1O)N(CCCl)CCCl .
### Response 1

### Prompt Short answer needed: outcome of this test for ClCCN(CCCl)C(c1ccccc1)c1ccc(Cl)cc1 (stereo unspecified) ?
### Response 0

### Prompt Hi team, can someone confirm the assay call for CNc1ccc(C(=O)CC(O)CCC(C)C2OC(=O)CC(O)CC(=O)CC(O)CC(O)CC(O)CC(O)CC3(O)CC(O)C(C(=O)OC)C(CC(O[C@@H]4O[C@H](C)[C@@H](O)[C@H](N)[C@@H]4O)/C=C/C=C/C=C/C=C/C=C/C=C/C=C/C2C)O3)cc1 (stereo partly specified) ?
### Response 1

* * *

# System: HL-60(TB) leukemia
# ASSAY PROTOCOL: NCI-60 one-dose screen, 48 h
# CONDITION DESCRIPTION: 10 µM unless noted
About 83,000 compounds went through this panel and 20% of them were active in at least one assay; those are over-represented in the sample as a whole. Calls of active or inactive are those of the source. How the source made its calls: active means growth percent below 10; inactive means the rest.
Pick from True = active, False = inactive when you respond.

CCS(=O)(=O)Nc1cccc(Nc2c3cccc(C)c3nc3c(C)cccc23)c1OC ... True
Ic1ccc(OCCCCn2ccnc2)cc1 ... True
O=[N+]([O-])c1cccc(C2CC(c3ccccc3)=Nc3ccccc3S2)c1 (stereo not drawn) ... False

### Prompt Which outcome did this test record for the molecule CCOc1cc(N)ccc1C(=O)NCCCN(CC)CC ?
### Response False

### Prompt For CSc1nc(N)c(NS(=O)(=O)c2ccc(C(C)=O)cc2)c(=O)[nH]1 , what call appears in the results of this test?
### Response False

### Prompt For this molecule, state the assay outcome: Fc1cc(F)cc(C(c2c[nH]c3ccccc23)c2c[nH]c3ccccc23)c1
### Response False

### Prompt Each molecule tested received a call. Report the one for Cn1c(=O)[nH]c2ccccc2c1=O .
### Response False
